- System: Zebrafish tremblor mutant
- assayInfo: Zebrafish screening: soaking
- Type: in vivo
- runConditions: Table 2, tremblor mutant soaked in 20 μM test compounds
endpointLabel: Rescue percent (%)
Number only, in %; omit the unit.

Consider the reported Rescue percent for these molecules:
Hey, Zebrafish tremblor mutant data for CCOC(=O)C1=CCN(S(=O)(=O)c2ccc(C)cc2)C1c1ccc(F)cc1 (stereo not drawn) : Rescue percent came out at 75

Value sought: Rescue percent, system Zebrafish tremblor mutant, item CCOC(=O)C1=CCN(S(=O)(=O)c2ccc(Cl)cc2)C1c1ccc(Cl)cc1 (stereo not drawn) . Result: 80

Would you kindly look at the next entry?
Item: CCOC(=O)C1=CCN(S(=O)(=O)c2ccc(C)cc2)C1c1cccc(C)c1 (racemic) | System: Zebrafish tremblor mutant | Rescue percent: 78

====

- Test system: Zebrafish tremblor mutant
- assayInfo: Zebrafish screening: soaking
- Format: in vivo
- runConditions: Table 2, tremblor mutant soaked in 20 μM test compounds
endpointLabel: Rescue percent (%)
# output: bare number, implied unit %

Please review the entries below; each comes with its answer.
Data point: CCOC(=O)C1=CCN(S(=O)(=O)c2ccc(C)cc2)C1c1ccccc1 (racemic) [F7] ; Rescue percent = 72

Reported Rescue percent for CCOC(=O)C1=CCN(S(=O)(=O)c2ccc(C)cc2)C1c1ccc(C(=O)OCC)cc1 (racemic) [F7-I-A06] was 88

***
Kindly note the recorded Rescue percent for Cc1ccc(S(=O)(=O)N2CC=C(C(=O)O)C2c2ccccc2)cc1 (stereo not drawn) [F7 acid] , which is 21
